Measured FcγR stimulation (TNF-α, pg/mL), listed per entry for reference.
SYSTEM: human LILRB4 (human, UniProt Q8NHJ6 22-448)
TEST_SUMMARY: cell-based or functional assay

[[record]]
binder = "ch48-E11-H7-B5 (antibody, V domains shown) VH: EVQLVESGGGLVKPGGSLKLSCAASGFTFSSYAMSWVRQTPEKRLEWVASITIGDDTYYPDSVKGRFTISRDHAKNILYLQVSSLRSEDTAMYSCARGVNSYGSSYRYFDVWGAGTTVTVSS VL: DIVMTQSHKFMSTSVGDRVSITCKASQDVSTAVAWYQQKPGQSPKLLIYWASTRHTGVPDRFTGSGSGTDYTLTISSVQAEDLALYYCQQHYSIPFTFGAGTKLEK"
assay_metric = "FcγR stimulation (TNF-α, pg/mL)"
observed_result = "1310 pg/mL"

[[record]]
binder = "ch44-F10-B6-D4 (antibody, V domains shown) VH: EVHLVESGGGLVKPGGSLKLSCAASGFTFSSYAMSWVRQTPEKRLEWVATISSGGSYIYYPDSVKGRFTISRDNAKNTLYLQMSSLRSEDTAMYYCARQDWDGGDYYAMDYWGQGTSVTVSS VL: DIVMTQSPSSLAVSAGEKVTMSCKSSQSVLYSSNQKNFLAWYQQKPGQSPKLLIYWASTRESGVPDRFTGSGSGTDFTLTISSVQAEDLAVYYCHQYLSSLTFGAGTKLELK"
assay_metric = "FcγR stimulation (TNF-α, pg/mL)"
observed_result = "126 pg/mL"

[[record]]
binder = "ch26-H9-B9-B7 (antibody, V domains shown) VH: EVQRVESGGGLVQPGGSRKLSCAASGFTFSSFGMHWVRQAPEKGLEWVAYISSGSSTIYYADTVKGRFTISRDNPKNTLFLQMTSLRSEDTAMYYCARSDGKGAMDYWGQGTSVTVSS VL: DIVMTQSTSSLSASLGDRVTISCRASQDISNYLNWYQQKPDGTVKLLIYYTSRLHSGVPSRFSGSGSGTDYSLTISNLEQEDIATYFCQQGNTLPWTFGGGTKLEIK"
assay_metric = "FcγR stimulation (TNF-α, pg/mL)"
observed_result = "547 pg/mL"

[[record]]
binder = "ch2-H1-D7-E5-D5 (antibody, V domains shown) VH: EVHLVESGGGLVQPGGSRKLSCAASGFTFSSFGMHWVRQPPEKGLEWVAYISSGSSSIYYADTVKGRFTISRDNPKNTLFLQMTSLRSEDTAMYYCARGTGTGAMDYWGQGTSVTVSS VL: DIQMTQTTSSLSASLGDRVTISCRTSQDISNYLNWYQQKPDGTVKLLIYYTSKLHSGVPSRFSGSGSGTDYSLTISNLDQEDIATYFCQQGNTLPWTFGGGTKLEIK"
assay_metric = "FcγR stimulation (TNF-α, pg/mL)"
observed_result = "325 pg/mL"


Proceed to the following item.
Record summary for IO-202 (antibody, V domains shown) VH: EVQLLESGGGLVQPGGSLRLSCAASGIDFSNHYYMYWVRQAPGKGLEWIGSIFSGDSASTYYADSAKGRFTISRDNSKNTLYLQMNSLRAEDTAVYYCARGMSTNDWASDLWGQGTLVTVSS VL: DIQMTQSPSSLSASVGDRVTITCQASESINSIYLAWYQQKPGKAPKLLIYRASTLASGVPSRFSGSGSGTDFTLTISSLQPEDFATYYCQQSYDWGDVENTFGGGTKVEIK : reported FcγR stimulation (TNF-α, pg/mL) = 238 pg/mL
